# MEASUREMENT_TARGET: Glucocorticoid receptor (Homo sapiens, UniProt P04150)
# Sequence (P04150 whole entry): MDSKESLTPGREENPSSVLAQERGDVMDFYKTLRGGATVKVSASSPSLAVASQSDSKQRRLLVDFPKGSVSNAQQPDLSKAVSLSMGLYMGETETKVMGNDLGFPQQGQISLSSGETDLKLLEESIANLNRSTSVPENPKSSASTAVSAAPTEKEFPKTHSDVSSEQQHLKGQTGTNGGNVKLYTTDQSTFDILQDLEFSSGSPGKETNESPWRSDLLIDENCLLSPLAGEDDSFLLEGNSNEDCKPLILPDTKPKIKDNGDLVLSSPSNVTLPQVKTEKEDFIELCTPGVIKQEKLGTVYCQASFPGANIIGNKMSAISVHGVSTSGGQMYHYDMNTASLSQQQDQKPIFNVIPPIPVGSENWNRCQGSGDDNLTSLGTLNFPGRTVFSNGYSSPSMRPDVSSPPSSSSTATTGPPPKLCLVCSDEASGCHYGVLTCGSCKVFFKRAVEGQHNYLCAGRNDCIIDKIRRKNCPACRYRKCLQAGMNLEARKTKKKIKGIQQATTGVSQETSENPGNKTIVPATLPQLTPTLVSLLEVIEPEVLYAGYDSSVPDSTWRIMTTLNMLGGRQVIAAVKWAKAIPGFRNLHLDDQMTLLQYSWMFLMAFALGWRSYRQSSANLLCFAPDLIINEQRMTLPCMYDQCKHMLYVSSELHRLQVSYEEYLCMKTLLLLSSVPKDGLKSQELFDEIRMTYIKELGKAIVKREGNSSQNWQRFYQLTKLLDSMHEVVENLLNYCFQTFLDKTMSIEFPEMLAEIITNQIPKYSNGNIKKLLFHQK
# ASSAY_PROTOCOL: Inhibition of dexamethasone-induced glucocorticoid receptor mediated alkaline phosphatase activity
# Format: functional
Overview of reported IC50 across a group of molecules:

# MOLECULE, IC50
rows = [
    ("CC#C[C@]1(O)CC[C@H]2[C@@H]3CCC4=CC(=O)CCC4=C3[C@@H](c3ccc(N(C)C[C@@H](O)C[C@@H](O)CC(=O)O)cc3)C[C@@]21C", "18 nM"),
    ("CC#C[C@]1(O)CC[C@H]2[C@@H]3CCC4=CC(=O)CCC4=C3[C@@H](c3ccc(N(C)C[C@@H](O)CC(=O)O)cc3)C[C@@]21C", "76 nM"),
    ("CC#C[C@]1(O)CC[C@H]2[C@@H]3CCC4=CC(=O)CCC4=C3[C@@H](c3ccc(OC[C@@H](O)CC(O)CC(=O)O)cc3)C[C@@]21C (single isomer, unassigned)", "2900 nM"),
    ("Cc1c(NS(C)(=O)=O)cccc1N(Cc1ccc(Oc2cccc(OC[C@@H]3C[C@@H](O)CC(=O)O3)c2)cc1)Cc1ccc(F)cc1F", "670 nM"),
    ("CC#C[C@]1(O)CC[C@H]2[C@@H]3CCC4=CC(=O)CCC4=C3[C@@H](c3ccc(N(C)C[C@@H]4C[C@@H](O)CC(=O)O4)cc3)C[C@@]21C", "23 nM"),
    ("Cc1c(NS(C)(=O)=O)cccc1N(Cc1ccccc1)Cc1ccc(Oc2ccc(OC[C@@H]3C[C@@H](O)CC(=O)O3)cc2)cc1", "440 nM"),
    ("Cc1c(NS(C)(=O)=O)cccc1N(Cc1ccccc1)Cc1ccc(Oc2ccc(OC[C@@H](O)C[C@@H](O)CC(=O)O)cc2)cc1", "300 nM"),
    ("Cc1c(NS(C)(=O)=O)cccc1N(Cc1ccc(Oc2cccc(OC[C@@H](O)C[C@@H](O)CC(=O)O)c2)cc1)Cc1ccc(F)cc1F", "760 nM"),
]

###

Overview of reported pIC50 across a group of compounds:
# MEASUREMENT_TARGET: Progesterone receptor (Homo sapiens, UniProt P06401)
# Sequence (P06401 whole entry): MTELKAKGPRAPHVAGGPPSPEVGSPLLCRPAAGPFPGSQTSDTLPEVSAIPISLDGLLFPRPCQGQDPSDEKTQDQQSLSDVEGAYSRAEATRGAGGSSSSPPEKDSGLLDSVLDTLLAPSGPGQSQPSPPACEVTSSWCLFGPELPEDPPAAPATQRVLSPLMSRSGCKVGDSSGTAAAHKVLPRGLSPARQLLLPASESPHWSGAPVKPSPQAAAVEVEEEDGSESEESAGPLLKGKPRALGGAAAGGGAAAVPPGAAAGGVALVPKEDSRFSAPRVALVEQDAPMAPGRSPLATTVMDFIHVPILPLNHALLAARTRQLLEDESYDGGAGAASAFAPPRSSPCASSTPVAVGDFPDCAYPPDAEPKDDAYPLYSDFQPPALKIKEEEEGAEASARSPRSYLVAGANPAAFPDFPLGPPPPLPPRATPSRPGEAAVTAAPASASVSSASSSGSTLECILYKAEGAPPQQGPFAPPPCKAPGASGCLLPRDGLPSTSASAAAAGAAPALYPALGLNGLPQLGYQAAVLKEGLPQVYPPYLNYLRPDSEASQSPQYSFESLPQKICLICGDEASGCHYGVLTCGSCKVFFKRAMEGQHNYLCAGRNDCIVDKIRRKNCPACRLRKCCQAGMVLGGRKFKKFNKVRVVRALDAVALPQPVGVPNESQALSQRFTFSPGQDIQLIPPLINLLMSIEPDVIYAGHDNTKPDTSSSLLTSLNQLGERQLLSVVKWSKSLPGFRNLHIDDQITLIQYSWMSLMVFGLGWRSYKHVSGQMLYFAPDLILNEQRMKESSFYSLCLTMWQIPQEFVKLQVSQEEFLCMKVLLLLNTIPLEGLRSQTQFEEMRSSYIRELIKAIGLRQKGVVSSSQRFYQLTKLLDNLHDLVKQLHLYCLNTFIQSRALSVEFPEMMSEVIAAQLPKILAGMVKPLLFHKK
pIC50: −log10 of the molar value.

# STRUCTURE, MEASUREMENT_TARGET, pIC50
records = [
    ("CC#C[C@]1(O)CC[C@H]2[C@@H]3CCC4=CC(=O)CCC4=C3[C@@H](c3ccc(N(C)C[C@@H](O)CC(=O)O)cc3)C[C@@]21C", "Progesterone receptor (Homo sapiens, UniProt P06401)", 6.70),
    ("CC#C[C@]1(O)CC[C@H]2[C@@H]3CCC4=CC(=O)CCC4=C3[C@@H](c3ccc(N(C)C[C@@H]4C[C@@H](O)CC(=O)O4)cc3)C[C@@]21C", "Progesterone receptor (Homo sapiens, UniProt P06401)", 8.42),
]

###

# MEASUREMENT_TARGET: Glucocorticoid receptor (Rattus norvegicus)
# Sequence (P06536 whole entry): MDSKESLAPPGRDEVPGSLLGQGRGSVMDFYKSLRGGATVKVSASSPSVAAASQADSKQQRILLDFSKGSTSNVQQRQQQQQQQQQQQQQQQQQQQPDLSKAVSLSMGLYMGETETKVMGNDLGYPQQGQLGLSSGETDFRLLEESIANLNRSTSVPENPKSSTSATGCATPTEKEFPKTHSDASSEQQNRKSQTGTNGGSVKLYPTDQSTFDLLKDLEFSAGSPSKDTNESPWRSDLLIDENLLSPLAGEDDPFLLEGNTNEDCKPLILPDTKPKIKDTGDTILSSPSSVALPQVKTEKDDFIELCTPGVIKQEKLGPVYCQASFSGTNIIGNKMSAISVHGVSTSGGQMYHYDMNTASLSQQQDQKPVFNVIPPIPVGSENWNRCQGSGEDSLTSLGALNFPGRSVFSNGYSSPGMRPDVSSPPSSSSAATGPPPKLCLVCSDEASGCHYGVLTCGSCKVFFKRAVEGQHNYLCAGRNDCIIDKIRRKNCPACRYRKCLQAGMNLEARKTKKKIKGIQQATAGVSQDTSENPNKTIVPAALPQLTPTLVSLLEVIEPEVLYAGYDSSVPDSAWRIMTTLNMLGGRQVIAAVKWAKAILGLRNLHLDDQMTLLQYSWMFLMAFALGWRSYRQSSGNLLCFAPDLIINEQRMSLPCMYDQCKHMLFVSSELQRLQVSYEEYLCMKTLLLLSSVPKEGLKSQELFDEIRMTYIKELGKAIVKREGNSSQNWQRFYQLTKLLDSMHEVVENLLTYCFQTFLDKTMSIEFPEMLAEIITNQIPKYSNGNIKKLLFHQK
# ASSAY_PROTOCOL: Inhibition of dexamethasone-induced glucocorticoid receptor mediated tyrosine aminotransferase in rat hepatocytes
READOUT_LABEL: IC50 (nM)

# COMPOUND, RELATION, MEASURED_RESULT
rows = [
    ("Cc1c(NS(C)(=O)=O)cccc1N(Cc1ccc(Oc2ccccc2)cc1)Cc1ccc(F)cc1F", ">", 30000),
    ("CC#C[C@]1(O)CC[C@H]2[C@@H]3CCC4=CC(=O)CCC4=C3[C@@H](c3ccc(N(C)C[C@@H]4C[C@@H](O)CC(=O)O4)cc3)C[C@@]21C", "=", 140),
    ("CC#C[C@]1(O)CC[C@H]2[C@@H]3CCC4=CC(=O)CCC4=C3[C@@H](c3ccc(OC[C@@H](O)CC(O)CC(=O)O)cc3)C[C@@]21C (single isomer, unassigned)", "=", 560),
    ("CC#C[C@]1(O)CC[C@H]2[C@@H]3CCC4=CC(=O)CCC4=C3[C@@H](c3ccc(N(C)C[C@@H](O)C[C@@H](O)CC(=O)O)cc3)C[C@@]21C", "=", 130),
    ("Cc1c(NS(C)(=O)=O)cccc1N(Cc1ccc(Oc2cccc(OC[C@@H]3C[C@@H](O)CC(=O)O3)c2)cc1)Cc1ccc(F)cc1F", ">", 30000),
    ("Cc1c(NS(C)(=O)=O)cccc1N(Cc1ccccc1)Cc1ccc(Oc2ccc(OC[C@@H]3C[C@@H](O)CC(=O)O3)cc2)cc1", ">", 30000),
    ("CC#C[C@]1(O)CC[C@H]2[C@@H]3CCC4=CC(=O)CCC4=C3[C@@H](c3ccc(N(C)C[C@@H](O)CC(=O)O)cc3)C[C@@]21C", "=", 220),
    ("Cc1c(NS(C)(=O)=O)cccc1N(Cc1ccccc1)Cc1ccc(Oc2ccc(OC[C@@H](O)C[C@@H](O)CC(=O)O)cc2)cc1", ">", 30000),
    ("Cc1c(NS(C)(=O)=O)cccc1N(Cc1ccc(Oc2cccc(OC[C@@H](O)C[C@@H](O)CC(=O)O)c2)cc1)Cc1ccc(F)cc1F", ">", 30000),
]

###

Target protein (sequence): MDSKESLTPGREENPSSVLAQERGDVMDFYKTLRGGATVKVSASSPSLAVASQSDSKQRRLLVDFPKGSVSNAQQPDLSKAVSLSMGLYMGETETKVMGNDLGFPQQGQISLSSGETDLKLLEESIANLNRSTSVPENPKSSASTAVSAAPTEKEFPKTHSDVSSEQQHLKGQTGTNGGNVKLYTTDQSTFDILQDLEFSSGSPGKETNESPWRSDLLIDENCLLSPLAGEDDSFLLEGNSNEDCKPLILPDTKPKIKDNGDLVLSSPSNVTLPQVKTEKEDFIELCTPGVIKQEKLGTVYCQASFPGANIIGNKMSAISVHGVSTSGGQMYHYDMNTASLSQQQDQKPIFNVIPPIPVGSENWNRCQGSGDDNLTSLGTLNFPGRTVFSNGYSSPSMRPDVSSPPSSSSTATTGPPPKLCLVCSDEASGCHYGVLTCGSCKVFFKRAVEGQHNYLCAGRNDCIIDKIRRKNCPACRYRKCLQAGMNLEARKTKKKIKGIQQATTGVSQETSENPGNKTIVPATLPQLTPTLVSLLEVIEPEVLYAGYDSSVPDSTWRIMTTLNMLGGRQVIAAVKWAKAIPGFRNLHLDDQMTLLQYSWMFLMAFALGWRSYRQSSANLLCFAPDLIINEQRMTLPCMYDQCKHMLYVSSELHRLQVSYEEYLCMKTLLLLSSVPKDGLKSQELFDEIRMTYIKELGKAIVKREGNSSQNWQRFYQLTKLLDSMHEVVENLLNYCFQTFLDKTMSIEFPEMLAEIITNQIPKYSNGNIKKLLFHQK
pIC50: −log10 of the molar value.
READOUT_LABEL: pIC50

# STRUCTURE, MEASURED_RESULT
data = [
    ("CC#C[C@]1(O)CC[C@H]2[C@@H]3CCC4=CC(=O)CCC4=C3[C@@H](c3ccc(N(C)C[C@@H]4C[C@@H](O)CC(=O)O4)cc3)C[C@@]21C", 8.64),
    ("CC#C[C@]1(O)CC[C@H]2[C@@H]3CCC4=CC(=O)CCC4=C3[C@@H](c3ccc(N(C)C[C@@H](O)C[C@@H](O)CC(=O)O)cc3)C[C@@]21C", 8.17),
    ("Cc1c(NS(C)(=O)=O)cccc1N(Cc1ccccc1)Cc1ccc(Oc2ccc(OC[C@@H](O)C[C@@H](O)CC(=O)O)cc2)cc1", 8.68),
]

# credit: ChEMBL document CHEMBL1137148
